Target: human prostanoid EP3 receptor (Homo sapiens)
Construct: expressed in transfected cells
Sequence (P43115 whole entry): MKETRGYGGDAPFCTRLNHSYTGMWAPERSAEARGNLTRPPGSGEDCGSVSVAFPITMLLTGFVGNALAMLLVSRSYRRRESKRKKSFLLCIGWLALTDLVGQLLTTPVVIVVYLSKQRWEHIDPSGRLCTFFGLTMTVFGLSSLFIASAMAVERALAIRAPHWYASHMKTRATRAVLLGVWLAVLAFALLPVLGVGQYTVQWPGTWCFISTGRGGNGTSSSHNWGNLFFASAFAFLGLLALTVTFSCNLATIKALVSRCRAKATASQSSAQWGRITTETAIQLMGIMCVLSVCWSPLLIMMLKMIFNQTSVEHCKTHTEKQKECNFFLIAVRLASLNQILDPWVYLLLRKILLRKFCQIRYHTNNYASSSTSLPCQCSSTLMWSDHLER
Assay: FLIPR Ca2+ signaling PG antagonist assay, EP3 stable cell line
Assay type: cell-based
Details: HEK-293 EBNA cells, human recombinant EP3 with chimeric Gqi; standard agonist PGE2
Experimental Endpoint: Kb

Could you tell me which Kb is on file for O=C(O)c1ccc2cnn(Cc3cc(Br)ccc3OCC3CCCC3)c2c1 [Example 44] ?
1.6 µM

Could you tell me which Kb is on file for O=C(O)c1ccc2c(cnn2Cc2cc(Cl)ccc2OCc2ccccc2)c1 [Example 8] ?
≥ 10 µM

Could you tell me which Kb is on file for CC(C)COc1ccc(Cl)cc1Cn1ncc2cc(C(=O)O)cnc21 [Example 57] ?
≥ 10 µM

Could you tell me which Kb is on file for Cc1ccc(OCC(C)C)c(Cn2ncc3cc(C(=O)O)ccc32)n1 [Example 50] ?
7.1 µM

Could you tell me which Kb is on file for O=C(O)c1ccc2cn(Cc3cc(Br)ccc3OCC3CCCC3)nc2c1 [Example 45] ?
≥ 10 µM

Could you tell me which Kb is on file for CC(C)COc1ccc(OC(F)(F)F)cc1Cn1ccc2cc(C(=O)O)ccc21 [Example 71] ?
≥ 10 µM

Could you tell me which Kb is on file for CCC(CC)COc1ccc(Br)cc1Cn1ccc2cc(C(=O)O)ccc21 [Example 69] ?
7.9 µM

* * *

Molecular target: human prostanoid TP receptor (Homo sapiens)
Construct: expressed in transfected cells
Sequence (P21731 1-343): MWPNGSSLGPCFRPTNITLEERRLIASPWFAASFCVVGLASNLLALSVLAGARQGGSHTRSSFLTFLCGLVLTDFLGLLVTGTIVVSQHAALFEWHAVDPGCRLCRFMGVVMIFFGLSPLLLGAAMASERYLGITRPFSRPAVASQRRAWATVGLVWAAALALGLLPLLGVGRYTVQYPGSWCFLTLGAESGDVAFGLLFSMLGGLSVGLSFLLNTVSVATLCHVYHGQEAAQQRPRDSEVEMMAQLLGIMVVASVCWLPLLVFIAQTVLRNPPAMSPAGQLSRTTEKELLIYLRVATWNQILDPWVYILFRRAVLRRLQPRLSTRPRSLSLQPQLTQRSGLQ
Assay: FLIPR Ca2+ signaling PG antagonist assay, TP stable cell line
Assay type: cell-based
Details: HEK-293 EBNA cells, human recombinant TP, no exogenous G-protein; standard agonist U-46619
Experimental Endpoint: Kb (nM)

Known results for molecules:
CC(C)COc1ccc(O)cc1Cn1ncc2cc(C(=O)O)ccc21 ... 640
Cc1nn(Cc2cc(OC(F)(F)F)ccc2OCC(C)C)c2ccc(C(=O)O)cc12 ... 5

a = O=C(O)c1ccc2c(cnn2Cc2cc(Cl)ccc2OCC2CC2)c1
b = Cc1nn(Cc2cc(Br)ccc2OCC2(C)CC2)c2ccc(C(=O)O)cc12
Between a and b , which one has the lower reported Kb value? Answer with the label corresponding to your selection.
b
(b: 7 nM, a: 120 nM)

* * *

Biological target: human prostanoid DP1 receptor (Homo sapiens, UniProt Q13258)
Construct: expressed in transfected cells
Sequence (Q13258 whole entry): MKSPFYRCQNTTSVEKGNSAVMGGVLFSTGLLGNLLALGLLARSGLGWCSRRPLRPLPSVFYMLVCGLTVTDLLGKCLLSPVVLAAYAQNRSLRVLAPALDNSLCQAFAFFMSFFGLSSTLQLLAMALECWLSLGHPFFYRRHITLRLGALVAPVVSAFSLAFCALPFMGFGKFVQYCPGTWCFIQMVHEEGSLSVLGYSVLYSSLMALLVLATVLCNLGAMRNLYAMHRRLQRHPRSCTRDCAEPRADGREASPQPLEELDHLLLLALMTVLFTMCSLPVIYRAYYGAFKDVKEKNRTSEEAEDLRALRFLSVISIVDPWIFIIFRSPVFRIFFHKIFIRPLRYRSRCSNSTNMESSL
Experiment: FLIPR Ca2+ signaling PG antagonist assay, DP1 stable cell line
Assay type: cell-based
Details: HEK-293 EBNA cells, human recombinant DP1 with chimeric Gqs; standard agonist BW 245C; read-out: DP (Kb, PG antagonist activity)
Experimental Endpoint: Kb (nM)

CC(C)COc1ccc(OC(F)(F)F)cc1Cn1ccc2cc(C(=O)O)cnc21 [Example 74] ... 290
O=C(O)c1cccc2c1cnn2Cc1cc(Cl)ccc1OCC1CC1 [Example 34] ... 5400
O=C(O)c1ccc2c(cnn2Cc2cc(Br)ccc2OCC2CC2)c1 [Example 15] ... 1800
CC(C)COc1ccc(Cl)cc1Cn1ncc2c(C(=O)O)cccc21 [Example 36] ... 1100
CC(C)COc1ccc(Br)cc1Cn1ncc2cc(C(=O)O)ccc21 [Example 4] ... 700
CC(C)COc1c(F)cc(Cl)cc1Cn1ncc2cc(C(=O)O)ccc21 [Example 47] ... 700
CCC(CC)COc1ccc(Br)cc1Cn1nc(C)c2cc(C(=O)O)cnc21 [Example 59] ... 520
CCC(CC)COc1ccc(Cl)cc1Cn1ncc2c(C(=O)O)cccc21 [Example 38] ... 630

A = Cc1nn(Cc2cc(Br)ccc2OCC(C)C)c2ccc(C(=O)O)cc12 [Example 21]
B = CCC(CC)Oc1ccc(Br)cc1Cn1ncc2cc(C(=O)O)ccc21 [Example 51]
Between A and B , which one has the lower reported Kb value? Answer with the label corresponding to your selection.
A
(A: 100 nM, B: 600 nM)

P = CC(C)COc1ccc(Br)cc1Cn1cc2ccc(C(=O)O)cc2n1 [Example 43]
Q = CC(C)COc1ccc(OC(F)(F)F)cc1Cn1ncc2cc(C(=O)O)ccc21 [Example 20]
Response body: label of entry with the larger Kb; valid values P , Q . Answer with the label corresponding to your selection.
P
(P: 2000 nM, Q: 500 nM)

1 = CCC(CC)COc1ccc(Cl)cc1Cn1ccc2cc(C(=O)O)ccc21 [Example 1]
2 = Cc1nn(Cc2cc(Cl)ccc2OCC(C)C)c2ccc(C(=O)O)cc12 [Example 24]
3 = O=C(O)c1ccc2c(cnn2Cc2cc(C(F)(F)F)ccc2OCC2CCCC2)c1 [Example 33]
Rank descending by Kb. Write the labels, ordered according to the request.
1, 3, 2
